- tgt: PIEZO1 (Mus musculus)
- assay info: Whole-cell patch-clamp with mechanical indentation of N2A cells expressing endogenous Piezo1
- measurement conditions: IC50 of inhibition of PIEZO1 currents, MA 1-300 μM 18 h; mean±SEM
readout type: IC50 (µM)

>  <substance smiles>
CCCCCCCCCCCCCCCCC(=O)O

>  <value>
28.3

$$$$

###

- tgt: PIEZO1 (Mus musculus, UniProt E2JF22)
- assay info: Whole-cell patch-clamp with mechanical indentation of N2A cells expressing endogenous Piezo1
- measurement conditions: IC50 of inhibition of PIEZO1 currents, latrunculin A-treated cells, MA 1-300 μM 18 h plus latrunculin A; mean±SEM
pIC50: −log10 of the molar value.

>  <compound>
CCCCCCCCCCCCCCCCC(=O)O [MA, heptadecanoic acid]

>  <pIC50>
4.59

$$$$

###

- tgt: mouse PIEZO2 (Mus musculus, UniProt Q8CD54)
- Sequence (Q8CD54 whole entry): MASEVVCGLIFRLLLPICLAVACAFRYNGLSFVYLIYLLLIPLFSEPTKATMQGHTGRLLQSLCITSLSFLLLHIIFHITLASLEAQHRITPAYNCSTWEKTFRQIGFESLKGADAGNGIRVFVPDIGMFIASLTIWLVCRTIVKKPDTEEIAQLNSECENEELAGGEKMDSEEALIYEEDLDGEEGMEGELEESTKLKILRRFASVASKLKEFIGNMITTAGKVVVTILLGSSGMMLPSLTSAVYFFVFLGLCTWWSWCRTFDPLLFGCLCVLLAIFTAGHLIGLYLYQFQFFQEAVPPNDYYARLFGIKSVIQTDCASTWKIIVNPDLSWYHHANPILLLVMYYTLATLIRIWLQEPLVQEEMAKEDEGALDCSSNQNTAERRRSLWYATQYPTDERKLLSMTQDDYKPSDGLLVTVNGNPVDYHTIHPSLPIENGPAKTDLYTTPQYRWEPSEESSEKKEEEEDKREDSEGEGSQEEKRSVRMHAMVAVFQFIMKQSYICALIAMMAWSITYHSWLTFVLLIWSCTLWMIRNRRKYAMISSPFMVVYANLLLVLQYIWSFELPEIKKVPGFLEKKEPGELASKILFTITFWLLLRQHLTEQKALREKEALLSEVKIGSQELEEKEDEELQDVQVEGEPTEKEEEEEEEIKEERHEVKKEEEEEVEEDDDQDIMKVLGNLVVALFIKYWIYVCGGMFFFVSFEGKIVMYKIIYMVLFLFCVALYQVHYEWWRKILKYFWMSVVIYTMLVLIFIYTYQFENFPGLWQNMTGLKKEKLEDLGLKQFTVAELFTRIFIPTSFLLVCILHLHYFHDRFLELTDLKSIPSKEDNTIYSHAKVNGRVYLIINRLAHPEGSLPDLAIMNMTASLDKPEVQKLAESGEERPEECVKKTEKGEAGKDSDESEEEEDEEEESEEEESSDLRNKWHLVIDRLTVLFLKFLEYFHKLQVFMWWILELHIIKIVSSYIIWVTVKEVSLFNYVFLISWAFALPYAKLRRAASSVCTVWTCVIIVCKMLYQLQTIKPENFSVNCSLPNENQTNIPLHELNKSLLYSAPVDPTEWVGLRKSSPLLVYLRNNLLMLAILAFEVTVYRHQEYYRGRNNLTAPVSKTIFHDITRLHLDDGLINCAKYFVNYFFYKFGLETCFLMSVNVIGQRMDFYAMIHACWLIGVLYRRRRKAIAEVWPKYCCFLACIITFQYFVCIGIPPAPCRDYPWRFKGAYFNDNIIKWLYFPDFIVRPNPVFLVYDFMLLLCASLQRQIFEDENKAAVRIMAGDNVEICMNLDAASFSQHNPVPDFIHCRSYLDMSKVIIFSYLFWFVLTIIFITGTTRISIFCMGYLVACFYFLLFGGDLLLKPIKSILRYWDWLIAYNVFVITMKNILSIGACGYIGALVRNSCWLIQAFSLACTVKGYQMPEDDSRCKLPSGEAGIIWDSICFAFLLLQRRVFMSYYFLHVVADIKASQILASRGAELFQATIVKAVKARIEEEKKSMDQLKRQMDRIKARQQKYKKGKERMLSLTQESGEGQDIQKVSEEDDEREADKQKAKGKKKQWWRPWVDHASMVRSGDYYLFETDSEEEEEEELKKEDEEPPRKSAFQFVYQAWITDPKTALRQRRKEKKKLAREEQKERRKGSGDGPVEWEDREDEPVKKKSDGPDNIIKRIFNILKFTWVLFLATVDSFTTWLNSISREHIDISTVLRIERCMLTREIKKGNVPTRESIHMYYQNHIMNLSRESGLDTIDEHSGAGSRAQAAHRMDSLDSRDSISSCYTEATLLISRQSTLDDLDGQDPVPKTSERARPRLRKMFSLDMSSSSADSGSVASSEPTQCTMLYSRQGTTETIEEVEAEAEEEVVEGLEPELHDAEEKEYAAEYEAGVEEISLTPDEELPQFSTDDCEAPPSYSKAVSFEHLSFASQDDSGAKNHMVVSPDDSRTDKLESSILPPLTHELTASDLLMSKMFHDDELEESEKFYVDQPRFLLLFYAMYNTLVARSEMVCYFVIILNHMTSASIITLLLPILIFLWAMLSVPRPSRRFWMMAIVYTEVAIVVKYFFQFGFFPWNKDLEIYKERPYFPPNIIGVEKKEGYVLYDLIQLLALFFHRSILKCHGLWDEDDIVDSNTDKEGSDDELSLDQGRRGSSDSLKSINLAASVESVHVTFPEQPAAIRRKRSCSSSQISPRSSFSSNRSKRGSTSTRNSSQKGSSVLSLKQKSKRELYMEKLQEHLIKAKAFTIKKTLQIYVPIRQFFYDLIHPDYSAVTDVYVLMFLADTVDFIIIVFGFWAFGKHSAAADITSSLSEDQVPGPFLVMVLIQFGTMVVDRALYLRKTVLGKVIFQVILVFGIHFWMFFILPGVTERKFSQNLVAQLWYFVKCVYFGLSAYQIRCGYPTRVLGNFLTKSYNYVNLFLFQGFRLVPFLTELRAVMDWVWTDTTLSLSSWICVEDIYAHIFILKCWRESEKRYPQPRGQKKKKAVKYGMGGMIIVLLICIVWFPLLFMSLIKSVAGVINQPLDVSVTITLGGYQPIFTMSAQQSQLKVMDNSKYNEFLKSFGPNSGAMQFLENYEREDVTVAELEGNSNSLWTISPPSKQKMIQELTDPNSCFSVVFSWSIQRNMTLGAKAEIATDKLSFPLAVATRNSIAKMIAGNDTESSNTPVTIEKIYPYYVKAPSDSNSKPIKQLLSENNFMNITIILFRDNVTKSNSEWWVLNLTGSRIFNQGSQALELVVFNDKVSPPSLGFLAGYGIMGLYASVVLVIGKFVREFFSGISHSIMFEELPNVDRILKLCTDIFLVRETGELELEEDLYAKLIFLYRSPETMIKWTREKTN
- assay info: Whole-cell patch-clamp with mechanical indentation of N2A^Piezo1−/− cells transfected with Piezo2 variant 2 (V2)
- measurement conditions: IC50 of inhibition of PIEZO2 currents, MA 1-600 μM overnight (18 h); normalized current densities at maximum displacement, Boltzmann fit; mean±SEM
pIC50: −log10 of the molar value.

>  <substance smiles>
CCCCCCCCCCCCCCCCC(=O)O

>  <pIC50>
3.72

$$$$

Every entry's value here was drawn from patent US12714688B2.
